Test system: KM-20L2
Assay: NCI tumour cell line growth inhibition, 48 h
Active and inactive are the calls of the source. Cut-off read from the data, not from the text of the source: active = GI50 up to about 1.1 µM and inactive = higher.
assayEndpoint: GI50

Cc1cccc(NC(=O)CSc2nnc(-c3ccc(/N=C\c4ccc(Cl)cc4)cc3)o2)c1 :: > 100 µM (inactive)

Query: Read off the recorded GI50 for O=Cc1[nH]c2ccccc2c1Br
Reply: 22.2 µM (inactive)

Query: Read off the recorded GI50 for COc1cc(/C=C(\C#N)C(N)=C(C#N)C#N)cc(O)c1O
Reply: > 100 µM (inactive)

Query: Read off the recorded GI50 for CCOC(=O)C1=C(Nc2ccc(Cl)cc2Cl)OCC1=O
Reply: > 100 µM (inactive)

Query: Read off the recorded GI50 for O=C1Nc2cccc3ncn(c23)C2=C1CCCC2
Reply: > 100 µM (inactive)

Query: Read off the recorded GI50 for Clc1cccc(N2CCN(CCCN3CCc4c([nH]c5ccccc45)C3c3cccnc3)CC2)c1 (stereo unspecified)
Reply: 4.28 µM (inactive)
